- test.system: T1, recombinant human CXCR3 (human, UniProt P49682 1-368, limits assumed)
- T1 construct: also called C-X-C motif chemokine receptor 3
- T1 sequence (looked up): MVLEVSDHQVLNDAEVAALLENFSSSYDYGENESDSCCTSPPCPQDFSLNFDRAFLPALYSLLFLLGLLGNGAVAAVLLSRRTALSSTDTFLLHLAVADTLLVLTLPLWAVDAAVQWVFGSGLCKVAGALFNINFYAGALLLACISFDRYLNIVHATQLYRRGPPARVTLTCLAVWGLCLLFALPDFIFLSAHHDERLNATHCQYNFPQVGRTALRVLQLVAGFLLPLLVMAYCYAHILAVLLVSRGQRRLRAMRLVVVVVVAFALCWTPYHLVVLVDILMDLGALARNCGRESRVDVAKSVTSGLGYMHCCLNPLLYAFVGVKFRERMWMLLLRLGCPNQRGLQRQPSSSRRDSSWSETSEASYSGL
- assay.text: binding kinetics; method and antigen not given
pKd: −log10 of the molar value.

# binder, pKd
measured = [
    ("humanized clone 53 HuAntibody 34 (antibody, V domains shown, humanized anti-human CXCR3 mAb) VH: EVQLLESGGGLVQPGGSLRLSCAASGFTFTSYAMSWVRQAPGKGLEWVAVISHGGTYTYYADSVKGRFTISRDNAKNTLYLQMNSLRAEDTAVYYCARHPIYSGNYQGYFDYWGQGTLVTVSS VL: DIQLTQSPSFLSASVGDRVTITCRASSGVNYLYWYQQKPGKAPKLWIYFTSTLASGVPSRFSGSGSGNEYTLTISSLQPEDFATYYCQQFTSSPYTFGQGTKLEIK", 8.99),
    ("humanized clone 53 HuAntibody 26 (antibody, V domains shown, humanized anti-human CXCR3 mAb) VH: EVQLLESGGGLVQPGGSLRLSCAASGFTFTSYAMSWVRQAPGKGLEWVAVISHGGTYTYYADSVKGRFTISRDNAKNTLYLQMNSLRAEDTAVYYCARHPIYSGNYQGYFDYWGQGTLVTVSS VL: DIQLTQSPSFLSASVGDRVTITCRASSGVNYLYWYQQKPGKAPKLWIYFTSTLAPGVPSRFSGSGSGNEYTLTISSLQPEDFATYYCQQFTSSPYTFGQGTKLEIK", 9.27),
]

// provenance: patent US20180244787A1
